cytotoxicity at 70.5 h: recorded values
# assay name: Human HepG2 cell viability assay in 384 well format
# Assay type: toxicity, cell-based
# Parameters: dose 125 nL, time 70.5 hour; concentration not given beside the values
# reported conditions: HepG2 cells, read-out: Inhibition
Could you give me the number in %? Just the number is fine.

Solved cases (8 shown):
- O=C1CN(c2ccc(CNC(=O)c3ccc[nH]3)cc2F)CCN1: 1.47
- CCOCCc1nc(-c2cnn3c(C)cc(C)nc23)no1: -107
- CC(C)(C)NCc1ccc(OCc2ccc3c(c2)OCCO3)cc1: 8.79
- CCS(=O)(=O)N1CCC(C(=O)NC(Cc2ccsc2)c2nccs2)CC1 (centres undefined): 18.9
- CCN(C)C(=O)NCC1(CN2CCOCC2)CCCCC1: -4.49
- Cc1csc([C@@H]2C[C@@H]3CCN(C(=O)c4ccnnc4)C[C@H]3O2)n1: -3.66
- COCCc1noc(-c2cc(Cl)c3c(c2)OCCCO3)n1: -19.1
- CNC(=O)c1cccc(C2CNCCN2C(=O)C2CCNCC2)c1 (centres undefined): -5.44

# input cytotoxicity at 70.5 h lookup needed for CCc1oc2ccc(NS(C)(=O)=O)cc2c1C(=O)OC , thanks.
# output 0.398

# input Try CCNc1nc2c(s1)C(=O)CN(C(=O)NCc1ccccc1)C2 next.
# output -0.493

# input Also Cc1nc(C)n(CC2CCCN2Cc2cc(-c3cccs3)on2)n1 (centres undefined) ?
# output -13.7

# input Now this one: COc1cccn(CC(=O)N(C)Cc2ccoc2)c1=O
# output 1.59

# input Also, Cc1nc(N)cc(C2(C)CCCNC2)n1 (centres undefined) please.
# output -5.33

# input Okay, and CC(C)c1sc(Cl)nc1C(=O)NCc1ccncc1 ?
# output 19.6

# input Next compound up: CCOC(C)c1nc(CN2CCNCC2)cs1 (centres undefined)
# output 10.9

# input Try this compound next: COc1c(C2CCCN2C(=O)CCNc2ncccn2)c(C)nn1C (centres undefined)
# output -10.7

# input Continue with COC(=O)C(NC(=O)C1CCCC1)c1cc(F)ccc1F (centres undefined)
# output 0.552

====

Each record here notes measured cytotoxicity at 70.5 h.
# assay name: Human HepG2 cell viability assay in 384 well format
# Type: toxicity, cell-based
# Design: dose 125 nL, time 70.5 hour; concentration not given beside the values
# reported conditions: HepG2 cells, read-out: Inhibition
Supply the numeric figure in %, leaving out any unit text.

Solved cases below.
- CCCC(=O)N1CCCCC1c1nc(N(C)C)ncc1-c1cc(C)no1 (centres undefined): -2.48
- CN1CCN(c2ncnc3c2c(C(=O)NC2CC2)c2ccccn23)CC1: 5.64
- Cc1cc(-c2ccc(=O)n(C3CCN(C(=O)C4CCC4)CC3)n2)c(C)o1: 1.9
- CN(C)CC1CN(Cc2nnc(C(C)(C)C)o2)CCO1 (centres undefined): 11.9
- CCc1nc(CCn2ccnc2-c2nccn2C)no1: -7.8
- CC(C)(C)c1nnc(CN2CCCC(Cn3cncn3)C2)o1 (centres undefined): -5.42

# input Given the compound O=C(CN1CCC(c2ccnn2CCO)CC1)NCc1ccco1 , what is its reported cytotoxicity at 70.5 h?
# output 11.2

# input What about this compound? Cc1oc(-c2nc(C#N)c(NC(C)C)o2)cc1S(=O)(=O)N1CCCCC1
# output -21.8

# input Also O=C(c1cccnc1)N1C[C@@H](c2ccccc2)[C@@]2(CCNC2=O)C1 ?
# output 7.29

# input // query: COc1nc2c(cc1C(=O)NCCc1nc(C)c(C(=O)O)s1)CCC2
# output 10

# input Queued: COCC1(C(=O)N[C@H]2CN(c3nnc(C)s3)C[C@@H]2C2CC2)CCC1
# output 7.64

# input Consider next the compound O=c1n(Cc2ccc(F)cc2)nc2ncccn12 in the same way.
# output 24.8

====

cytotoxicity at 70.5 h for assorted compounds
# assay name: Human HepG2 cell viability assay in 384 well format
# Assay type: toxicity, cell-based
# Design: dose 125 nL, time 70.5 hour; concentration not given beside the values
# reported conditions: HepG2 cells, read-out: Inhibition
Write it as a number; the unit % goes unstated.

Here are 4 compounds together with their reported answers.
• Cc1cn2c(n1)CCC(NS(=O)(=O)c1sc(C)nc1C)C2 (stereo unspecified) = 3.5
• Cc1cc(C)c(C(=O)NCCNc2ncnc3ccccc23)c(=O)[nH]1 = -2.04
• CCC[C@H]1CN(Cc2cc(C)no2)C[C@@H]1NC(=O)C1(COC)CCC1 = -10
• Cc1c(F)cccc1CN1CCn2nc(CNC(=O)N(C)C)cc2C1 = 20

# input Param item = CCOC(=O)NC(C(=O)NCc1ccc(N2CCCCC2)nc1)C(C)C (stereo unspecified) ; retrieve measured cytotoxicity at 70.5 h.
# output -8.83

# input And for CC(NC(=O)C1CC1)C(=O)N(C)Cc1ccsc1 (stereo unspecified) ?
# output -5.83

====

# assay name: Human HepG2 cell viability assay in 384 well format
# Type: toxicity, cell-based
# Set-up: dose 125 nL, time 70.5 hour; concentration not given beside the values
# reported conditions: HepG2 cells, read-out: Inhibition
metric: cytotoxicity at 70.5 h (%)
A number alone suffices; assume %.

# input GET /values?readout=cytotoxicity at 70.5 h&item= Cc1cc(N2CCC3(CC2)C(C(=O)O)CC(=O)N3C)nc2ccccc12 (centres undefined)
# output -6.81

# input Similarly, Cc1cn[nH]c1C1CCCCN1C(=O)CCN1CCCCCC1 (centres undefined) ?
# output -36.7

# input Repeat for the following compound: O=C(NC1=NCCCN1c1ccc(Cl)cc1)c1cccc(Cl)c1
# output 9.24

# input Query Cc1cnn(C2CCCN(C(=O)c3ccc(-n4cccn4)nc3)C2)c1 (centres undefined) next
# output -11.3

# input Further, for Cc1cc(C)n(CC2CN(Cc3nnsc3Cl)CCO2)n1 (centres undefined) ?
# output -13

# input Try CCc1cc(CNCc2ccccc2N(C)C2CCN(C)CC2)on1 next.
# output -1.28

# input What about NC(=O)C1CCN(C(=O)NC2CCN(CC3CCCC3)C2)CC1 (centres undefined) ?
# output 9.67

====

# assay name: Human HepG2 cell viability assay in 384 well format
# Format: toxicity, cell-based
# Set-up: dose 125 nL, time 70.5 hour; concentration not given beside the values
# reported conditions: HepG2 cells, read-out: Inhibition
metric: cytotoxicity at 70.5 h (%)
Answer in %, number only, no unit symbol.

Worked cases, cytotoxicity at 70.5 h given:
- Cc1cc(=O)n(CC(=O)Nc2ccc(Cl)cc2)nc1C: -2.9
- Oc1cccc(CN2CCN(c3nccc(CCC(F)(F)F)n3)CC2)c1: -3.66
- CS(=O)(=O)N1CCN(Cc2ccc(F)cc2Br)CC1: -9.98

# input Field request: cytotoxicity at 70.5 h | item: CC(C)NC(=O)N1CCN(S(=O)(=O)C2CC2)CC2(CC(=O)N(C)C2)C1 (configuration not stated)
# output 0.827

# input Here is the next compound: Cc1ccc(C(=O)NS(=O)(=O)c2cccc3cnccc23)c(=O)[nH]1
# output -6.04

# input Now the same for c1cnc(NCc2ncn3c2CN(Cc2cccnc2)CCC3)nc1
# output -2.74

# input Queued: CN(CCCc1nccn1C)C(=O)C1COc2ccccc2C1 (configuration not stated)
# output -2.53

# input Please give the result for CC(C)n1cnc2c1C(C(=O)N1CCOCC1)N(CC1CC1)CC2 (configuration not stated) too.
# output -15.8

====

# assay name: Human HepG2 cell viability assay in 384 well format
# Format: toxicity, cell-based
# Parameters: dose 125 nL, time 70.5 hour; concentration not given beside the values
# reported conditions: HepG2 cells, read-out: Inhibition
Property: cytotoxicity at 70.5 h; scope: individual compounds
Quick note: give the figure in %, leave out the unit.

Here are 5 compounds together with their reported answers.
- O=C(CCc1ccncc1)N1CCCC(n2cccn2)C1 (stereo unspecified): -1.5
- Cc1ocnc1C(=O)N1CC[C@@]2(O)CCN(C(=O)N3CCCC3)C[C@H]2C1: -4.39
- O=C1CC(c2ccncc2)C2(CCN(C(=O)c3ccc[nH]3)CC2)N1 (stereo unspecified): 23.7
- COCCC(=O)N1CCCCC1c1ccc(F)cc1 (stereo unspecified): 5.22
- CCOCC1CN(Cc2ccoc2)Cc2nn(C)cc21 (stereo unspecified): -4.9

We next turn to a different compound, shown below.
# input What value of measured cytotoxicity at 70.5 h is listed for CCCC1(NC(=O)C(c2ccccc2C)N(C)C)CC1 (stereo unspecified) ?
# output -5.65

====

Consider the following compounds and their measured cytotoxicity at 70.5 h readings.
# assay name: Human HepG2 cell viability assay in 384 well format
# Type: toxicity, cell-based
# Design: dose 125 nL, time 70.5 hour; concentration not given beside the values
# reported conditions: HepG2 cells, read-out: Inhibition
Note: unit % is implicit; provide only the numeric part.

Here are 2 compounds together with their reported answers.
* NC(=O)C1CCN(Cn2nc(-c3ccccc3)oc2=O)CC1 | -8.01
* CCOc1ccccc1CNCC1CCN(CC(C)O)CC1 (centres undefined) | -1.15

# input Report cytotoxicity at 70.5 h for C[C@@H]1CN(Cc2nc(C(N)=O)no2)CC[C@@]1(O)C1CCOCC1 please.
# output -8.91

# input Try the compound CC(C(=O)NCC(C)(C)c1ccc2c(c1)OCCO2)n1cncn1 (centres undefined)
# output 0.318

# input Try the compound Cc1cc(C)n2c(CCCNS(=O)(=O)c3cccs3)nnc2n1
# output -10.2

# input Also check O=C(COC1CCCC1)N1CCCN(c2ncccn2)CC1
# output -2.52

# input // same read-out, input: O=C(N1CCOCC1)N1CCc2[nH]nc(COc3cccc(Cl)c3)c2C1
# output -2.78

# input And the next one, CCOc1c(F)cccc1C(=O)N(c1cccnc1)C(C)C ?
# output -3.95

# input Next up: C[C@]1(O)CN(CCO)CC[C@@H]1Oc1cccc(F)c1
# output -2.99

# input Next entry: Cc1cccc2c1nc(CCO)n2-c1ccc(N)nc1
# output -8.34
